Assign IC50 to each entry below.
Target Or System: 11β-HSD1 (Homo sapiens, UniProt P28845)
Construct: detecting cortisol generated from cortisterone by human liver microsomes; from tissue; host or cells: human liver microsomes
Sequence (P28845 whole entry): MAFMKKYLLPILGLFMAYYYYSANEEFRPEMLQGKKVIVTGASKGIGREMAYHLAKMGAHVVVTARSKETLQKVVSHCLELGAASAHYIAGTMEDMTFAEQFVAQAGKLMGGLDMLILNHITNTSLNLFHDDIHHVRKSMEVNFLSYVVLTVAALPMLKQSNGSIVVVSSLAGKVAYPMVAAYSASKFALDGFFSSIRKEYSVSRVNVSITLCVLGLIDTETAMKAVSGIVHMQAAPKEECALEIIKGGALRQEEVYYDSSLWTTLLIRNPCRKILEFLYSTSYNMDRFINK
Method Description: In vitro inhibition of 11β-HSD1, HTRF detection of cortisol generated from cortisone by human liver microsomes
Type: biochemical
Test Parameters: 11β-HSD IC50 (nM), 1 hour at 37° C., pH 6.0, NADPH 200 μM, cortisone 80 nM, inhibition relative to carbenoxolone signal
Respond with the bare value in nM.

Record request: IC50 value, item CC1(C)[C@H]2Cc3cc4nc[nH]c4cc3[C@]1(C)CCN2C(=O)c1ccc2nc[nH]c2c1
24

Record request: IC50 value, item CC(=O)NCc1ccc(C(=O)N2CC[C@@]3(C)c4cccc(O)c4C[C@@H]2C3(C)C)cc1
958

Record request: IC50 value, item CNC(=O)c1ccc2c(c1)[C@]1(C)CCN(C(=O)c3ccc4nc[nH]c4c3)[C@H](C2)[C@H]1C
340

Record request: IC50 value, item C[C@@H]1C[C@]2(C)C[C@@H](Cc3ccccc32)N1C(=O)c1ccc2nc[nH]c2c1 (racemic)
78

Record request: IC50 value, item CC1(C)C2Cc3ccc(O)cc3C1(c1ccccc1)CCN2C(=O)c1ccc2nc[nH]c2c1 (stereo not shown)
438

Record request: IC50 value, item COc1ccc2c(c1)C[C@H]1N(C(=O)c3ccc4nc[nH]c4c3)CC[C@]2(C)C1(C)C
69

Record request: IC50 value, item COc1cc(C(=O)N2CC[C@@]3(C)c4cccc(O)c4C[C@@H]2C3(C)C)ccc1CN1CCCC1=O
818
